Can you tell me activity coefficient for the items I'm about to list?
# protocol-description: activity coefficient (dimensionless); of the first substance listed, at infinite dilution; xn = mol fraction of the nth substance listed
# condition-summary: 343.15 K; 101 kPa; Liquid; Chromatography; x1 = 0
Response field accepts a number only; no unit should be typed.

Can you look up the measured activity coefficient of C#CCCCCC [1-heptyne] + CCCCCCCCCCn1cc[n+](CCCCCCCCCC)c1C.O=S(=O)([N-]S(=O)(=O)C(F)(F)F)C(F)(F)F for me?
1.06

Can you look up the measured activity coefficient of ClC(Cl)Cl [trichloromethane] + CCCCCCCCCCn1cc[n+](CCCCCCCCCC)c1C.O=S(=O)([N-]S(=O)(=O)C(F)(F)F)C(F)(F)F for me?
0.402

Can you look up the measured activity coefficient of CC(C)CO [2-methyl-1-propanol] + CCCCCCCCCCn1cc[n+](CCCCCCCCCC)c1C.O=S(=O)([N-]S(=O)(=O)C(F)(F)F)C(F)(F)F for me?
1.06

Can you look up the measured activity coefficient of CCO [ethanol] + CCCCCCCCCCn1cc[n+](CCCCCCCCCC)c1C.O=S(=O)([N-]S(=O)(=O)C(F)(F)F)C(F)(F)F for me?
1.04

Can you look up the measured activity coefficient of CCCCO [butan-1-ol] + CCCCCCCCCCn1cc[n+](CCCCCCCCCC)c1C.O=S(=O)([N-]S(=O)(=O)C(F)(F)F)C(F)(F)F for me?
1.12

Can you look up the measured activity coefficient of CCCCCCCC [octane] + CCCCCCCCCCn1cc[n+](CCCCCCCCCC)c1C.O=S(=O)([N-]S(=O)(=O)C(F)(F)F)C(F)(F)F for me?
2.45

Can you look up the measured activity coefficient of CC(C)O [propan-2-ol] + CCCCCCCCCCn1cc[n+](CCCCCCCCCC)c1C.O=S(=O)([N-]S(=O)(=O)C(F)(F)F)C(F)(F)F for me?
1.03

Can you look up the measured activity coefficient of CC#N [acetonitrile] + CCCCCCCCCCn1cc[n+](CCCCCCCCCC)c1C.O=S(=O)([N-]S(=O)(=O)C(F)(F)F)C(F)(F)F for me?
0.44

Can you look up the measured activity coefficient of CCCCCCCCC [nonane] + CCCCCCCCCCn1cc[n+](CCCCCCCCCC)c1C.O=S(=O)([N-]S(=O)(=O)C(F)(F)F)C(F)(F)F for me?
3.45

Can you look up the measured activity coefficient of Cc1ccccc1 [toluene] + CCCCCCCCCCn1cc[n+](CCCCCCCCCC)c1C.O=S(=O)([N-]S(=O)(=O)C(F)(F)F)C(F)(F)F for me?
0.527

Can you look up the measured activity coefficient of Cc1cccc(C)c1 [1,3-dimethylbenzene] + CCCCCCCCCCn1cc[n+](CCCCCCCCCC)c1C.O=S(=O)([N-]S(=O)(=O)C(F)(F)F)C(F)(F)F for me?
0.663

Can you look up the measured activity coefficient of C1COCCO1 [1,4-dioxane] + CCCCCCCCCCn1cc[n+](CCCCCCCCCC)c1C.O=S(=O)([N-]S(=O)(=O)C(F)(F)F)C(F)(F)F for me?
0.453

Can you look up the measured activity coefficient of ClCCl [dichloromethane] + CCCCCCCCCCn1cc[n+](CCCCCCCCCC)c1C.O=S(=O)([N-]S(=O)(=O)C(F)(F)F)C(F)(F)F for me?
0.351

Can you look up the measured activity coefficient of OCC(F)(F)F [2,2,2-trifluoroethanol] + CCCCCCCCCCn1cc[n+](CCCCCCCCCC)c1C.O=S(=O)([N-]S(=O)(=O)C(F)(F)F)C(F)(F)F for me?
0.355

Can you look up the measured activity coefficient of C=CCCCC [hex-1-ene] + CCCCCCCCCCn1cc[n+](CCCCCCCCCC)c1C.O=S(=O)([N-]S(=O)(=O)C(F)(F)F)C(F)(F)F for me?
1.36

Can you look up the measured activity coefficient of Cc1ccccc1C [1,2-dimethylbenzene] + CCCCCCCCCCn1cc[n+](CCCCCCCCCC)c1C.O=S(=O)([N-]S(=O)(=O)C(F)(F)F)C(F)(F)F for me?
0.603

Can you look up the measured activity coefficient of C1CCCCC1 [cyclohexane] + CCCCCCCCCCn1cc[n+](CCCCCCCCCC)c1C.O=S(=O)([N-]S(=O)(=O)C(F)(F)F)C(F)(F)F for me?
1.26

Can you look up the measured activity coefficient of CCc1ccccc1 [ethylbenzene] + CCCCCCCCCCn1cc[n+](CCCCCCCCCC)c1C.O=S(=O)([N-]S(=O)(=O)C(F)(F)F)C(F)(F)F for me?
0.689

Can you look up the measured activity coefficient of ClC(Cl)(Cl)Cl [tetrachloromethane] + CCCCCCCCCCn1cc[n+](CCCCCCCCCC)c1C.O=S(=O)([N-]S(=O)(=O)C(F)(F)F)C(F)(F)F for me?
0.777

Can you look up the measured activity coefficient of CC1CCCCC1 [methylcyclohexane] + CCCCCCCCCCn1cc[n+](CCCCCCCCCC)c1C.O=S(=O)([N-]S(=O)(=O)C(F)(F)F)C(F)(F)F for me?
1.45

Can you look up the measured activity coefficient of C#CCCCC [1-hexyne] + CCCCCCCCCCn1cc[n+](CCCCCCCCCC)c1C.O=S(=O)([N-]S(=O)(=O)C(F)(F)F)C(F)(F)F for me?
0.899

Can you look up the measured activity coefficient of c1ccccc1 [benzene] + CCCCCCCCCCn1cc[n+](CCCCCCCCCC)c1C.O=S(=O)([N-]S(=O)(=O)C(F)(F)F)C(F)(F)F for me?
0.434

Can you look up the measured activity coefficient of CO [methanol] + CCCCCCCCCCn1cc[n+](CCCCCCCCCC)c1C.O=S(=O)([N-]S(=O)(=O)C(F)(F)F)C(F)(F)F for me?
0.755

Can you look up the measured activity coefficient of CC(C)OC(C)C [diisopropyl ether] + CCCCCCCCCCn1cc[n+](CCCCCCCCCC)c1C.O=S(=O)([N-]S(=O)(=O)C(F)(F)F)C(F)(F)F for me?
1.23

Can you look up the measured activity coefficient of CCOCC [diethyl ether] + CCCCCCCCCCn1cc[n+](CCCCCCCCCC)c1C.O=S(=O)([N-]S(=O)(=O)C(F)(F)F)C(F)(F)F for me?
0.773

----------
# protocol-description: activity coefficient (dimensionless); of the first substance listed, at infinite dilution; xn = mol fraction of the nth substance listed
# condition-summary: 332.85 K; 101 kPa; Liquid; Chromatography; x1 = 0
Binned activity coefficient; ranges: low = under 0.9, intermediate = from 0.9 up to 2, high = 2 and over

Which of the defined bands does the recorded activity coefficient of CCCC(C)=O [pentan-2-one] + CCCCCC[n+]1ccn(C)c1.FC(F)(F)C(F)(F)[P-](F)(F)(F)(C(F)(F)C(F)(F)F)C(F)(F)C(F)(F)F sit within?
low

Which of the defined bands does the recorded activity coefficient of C1CCCCC1 [cyclohexane] + CCCCCC[n+]1ccn(C)c1.FC(F)(F)C(F)(F)[P-](F)(F)(F)(C(F)(F)C(F)(F)F)C(F)(F)C(F)(F)F sit within?
high

Which of the defined bands does the recorded activity coefficient of CCCCCCCCC [nonane] + CCCCCC[n+]1ccn(C)c1.FC(F)(F)C(F)(F)[P-](F)(F)(F)(C(F)(F)C(F)(F)F)C(F)(F)C(F)(F)F sit within?
high

Which of the defined bands does the recorded activity coefficient of Cc1cccc(C)c1 [1,3-dimethylbenzene] + CCCCCC[n+]1ccn(C)c1.FC(F)(F)C(F)(F)[P-](F)(F)(F)(C(F)(F)C(F)(F)F)C(F)(F)C(F)(F)F sit within?
intermediate

Which of the defined bands does the recorded activity coefficient of C=O [methanal] + CCCCCC[n+]1ccn(C)c1.FC(F)(F)C(F)(F)[P-](F)(F)(F)(C(F)(F)C(F)(F)F)C(F)(F)C(F)(F)F sit within?
low

Which of the defined bands does the recorded activity coefficient of CC(C)O [propan-2-ol] + CCCCCC[n+]1ccn(C)c1.FC(F)(F)C(F)(F)[P-](F)(F)(F)(C(F)(F)C(F)(F)F)C(F)(F)C(F)(F)F sit within?
intermediate

Which of the defined bands does the recorded activity coefficient of C#CCCCC [1-hexyne] + CCCCCC[n+]1ccn(C)c1.FC(F)(F)C(F)(F)[P-](F)(F)(F)(C(F)(F)C(F)(F)F)C(F)(F)C(F)(F)F sit within?
intermediate

Which of the defined bands does the recorded activity coefficient of CCCCCCC [heptane] + CCCCCC[n+]1ccn(C)c1.FC(F)(F)C(F)(F)[P-](F)(F)(F)(C(F)(F)C(F)(F)F)C(F)(F)C(F)(F)F sit within?
high

Which of the defined bands does the recorded activity coefficient of ClC(Cl)(Cl)Cl [tetrachloromethane] + CCCCCC[n+]1ccn(C)c1.FC(F)(F)C(F)(F)[P-](F)(F)(F)(C(F)(F)C(F)(F)F)C(F)(F)C(F)(F)F sit within?
high

Which of the defined bands does the recorded activity coefficient of CCCCCCCCCCCC [dodecane] + CCCCCC[n+]1ccn(C)c1.FC(F)(F)C(F)(F)[P-](F)(F)(F)(C(F)(F)C(F)(F)F)C(F)(F)C(F)(F)F sit within?
high

Which of the defined bands does the recorded activity coefficient of CCC[N+](=O)[O-] [1-nitropropane] + CCCCCC[n+]1ccn(C)c1.FC(F)(F)C(F)(F)[P-](F)(F)(F)(C(F)(F)C(F)(F)F)C(F)(F)C(F)(F)F sit within?
low

Which of the defined bands does the recorded activity coefficient of CC1CCCC1 [methylcyclopentane] + CCCCCC[n+]1ccn(C)c1.FC(F)(F)C(F)(F)[P-](F)(F)(F)(C(F)(F)C(F)(F)F)C(F)(F)C(F)(F)F sit within?
high

Which of the defined bands does the recorded activity coefficient of CC#N [acetonitrile] + CCCCCC[n+]1ccn(C)c1.FC(F)(F)C(F)(F)[P-](F)(F)(F)(C(F)(F)C(F)(F)F)C(F)(F)C(F)(F)F sit within?
low

Which of the defined bands does the recorded activity coefficient of C[N+](=O)[O-] [nitromethane] + CCCCCC[n+]1ccn(C)c1.FC(F)(F)C(F)(F)[P-](F)(F)(F)(C(F)(F)C(F)(F)F)C(F)(F)C(F)(F)F sit within?
low

Which of the defined bands does the recorded activity coefficient of C=CCCCC [hex-1-ene] + CCCCCC[n+]1ccn(C)c1.FC(F)(F)C(F)(F)[P-](F)(F)(F)(C(F)(F)C(F)(F)F)C(F)(F)C(F)(F)F sit within?
high

Which of the defined bands does the recorded activity coefficient of c1ccccc1 [benzene] + CCCCCC[n+]1ccn(C)c1.FC(F)(F)C(F)(F)[P-](F)(F)(F)(C(F)(F)C(F)(F)F)C(F)(F)C(F)(F)F sit within?
low

Which of the defined bands does the recorded activity coefficient of Cc1ccc(C)cc1 [1,4-dimethylbenzene] + CCCCCC[n+]1ccn(C)c1.FC(F)(F)C(F)(F)[P-](F)(F)(F)(C(F)(F)C(F)(F)F)C(F)(F)C(F)(F)F sit within?
intermediate

Which of the defined bands does the recorded activity coefficient of C#CCCCCC [1-heptyne] + CCCCCC[n+]1ccn(C)c1.FC(F)(F)C(F)(F)[P-](F)(F)(F)(C(F)(F)C(F)(F)F)C(F)(F)C(F)(F)F sit within?
high

Which of the defined bands does the recorded activity coefficient of C1COCCO1 [1,4-dioxane] + CCCCCC[n+]1ccn(C)c1.FC(F)(F)C(F)(F)[P-](F)(F)(F)(C(F)(F)C(F)(F)F)C(F)(F)C(F)(F)F sit within?
low

The measurements presented in this section are drawn from the NIST ThermoML archive (doi:10.1021/je200195q).
